Provenance of the data: patent US20220339143A1

# Method Summary: Single dose PK in healthy subjects (Cohorts 1, 2, S1 and S2), plasma
# Assay type: in vivo, human
# Condition Info: human, plasma, intravenous, 7 mg; 9 hr; read-out: Plasma concentration, Q3
Observation Type: concentration at 9 h (ng/mL)
Numeric answer only, unit ng/mL assumed.

Query COC(=O)N1CCC[C@H](NS(C)(=O)=O)[C@@H]1CO[C@H]1CC[C@@H](c2ccccc2)CC1 yields concentration at 9 h of 15

====

# Method Summary: Plasma concentrations in healthy subjects (Cohort 4)
# Type: in vivo
# Condition Info: human, intravenous, 112 mg, 4 hr, Mean
Observation Type: concentration at 4 h
Write the numeric value and append its unit.

Measured concentration at 4 h of COC(=O)N1CCC[C@H](NS(C)(=O)=O)[C@@H]1CO[C@H]1CC[C@@H](c2ccccc2)CC1 [Compound A] : 234 ng/mL
